# STUDY SYSTEM: NA Transporter (hNAT) (Homo sapiens, UniProt P23975)
# Sequence (P23975 whole entry): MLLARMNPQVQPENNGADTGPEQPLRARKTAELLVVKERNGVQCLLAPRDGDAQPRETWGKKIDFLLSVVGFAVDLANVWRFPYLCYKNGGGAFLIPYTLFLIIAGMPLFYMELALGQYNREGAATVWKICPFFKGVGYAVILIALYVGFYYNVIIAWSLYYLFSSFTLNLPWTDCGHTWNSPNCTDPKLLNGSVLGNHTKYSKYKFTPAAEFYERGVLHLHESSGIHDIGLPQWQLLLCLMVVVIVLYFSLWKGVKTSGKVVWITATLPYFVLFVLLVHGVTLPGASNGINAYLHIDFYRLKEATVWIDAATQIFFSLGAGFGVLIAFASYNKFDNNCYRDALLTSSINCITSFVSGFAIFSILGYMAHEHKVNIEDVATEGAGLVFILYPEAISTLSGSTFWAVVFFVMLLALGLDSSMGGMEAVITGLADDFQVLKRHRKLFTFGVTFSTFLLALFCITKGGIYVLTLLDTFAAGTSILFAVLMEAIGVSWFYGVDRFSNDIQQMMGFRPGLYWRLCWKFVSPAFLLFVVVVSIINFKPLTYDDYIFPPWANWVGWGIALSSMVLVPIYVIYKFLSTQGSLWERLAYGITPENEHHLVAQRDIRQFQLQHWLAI
# ASSAY TEXT: Inhibition of [3H]-NA reuptake in HEK 293 cells stably expressing hNAT
# CONDITION LABEL: HEK293, read-out: NA Reuptake Inhibition
EXPERIMENTAL READOUT: inhibition at 10 µM (%)
Write it as a number; the unit % goes unstated.

{"columns": ["COMPOUND", "inhibition at 10 µM / %"],
 "data": [
  ["COc1ccc(C(CN(C)C)C2(O)CCCCC2)cc1 (stereo not shown) [Venlafaxine, reference compound]", 96.4],
  ["CN(C)CCC(c1cc2ccccc2s1)N1CCCC1 (stereo not shown) [VI-19]", 91.2],
  ["CN(C)CCC(c1csc2ccccc12)N1CCCCC1 (stereo not shown)", 92.1],
  ["CN(C)CCC(c1ccc(Cl)c(Cl)c1)N1CCCC1 (stereo not shown) [VI-2]", 100]
]}

Any idea what inhibition at 10 µM was measured for CCN(CC)CCC(c1ccc(Cl)c(Cl)c1)N1CCCC1 (stereo not shown) [VI-1] ?
101

Any idea what inhibition at 10 µM was measured for COc1ccc2cc(C(CCN(C)C)N3CCCC3)ccc2c1Cl (stereo not shown) [VI-36] ?
97.8

Any idea what inhibition at 10 µM was measured for CN(C)CCC(c1csc2ccccc12)N1CCCC1 (stereo not shown) [VI-13] ?
98.8

###

# ASSAY TEXT: Acute toxicity experiment (single oral gavage)
# CONDITION LABEL: mouse, in vivo; mice, single oral gavage; Bliss method; read-out: LD50
EXPERIMENTAL READOUT: LD50 (mg/kg)
Write it as a number; the unit mg/kg goes unstated.

Any idea what LD50 was measured for CN(C)CCC(c1csc2ccccc12)N1CCCCC1 (stereo not shown) ?
870

###

# STUDY SYSTEM: NA Transporter (hNAT) (Homo sapiens)
# ASSAY TEXT: Inhibition of [3H]-NA reuptake in HEK 293 cells stably expressing hNAT
# CONDITION LABEL: 10 μmol/L final concentration (b487 prints 0.1 mmol/L); HEK 293 hNAT cells, [3H]-NA
EXPERIMENTAL READOUT: NA Reuptake Inhibition (%)
Write it as a number; the unit % goes unstated.

Use these answered entries as a reference point.
{"columns": ["COMPOUND", "STUDY SYSTEM", "NA Reuptake Inhibition / %"],
 "data": [
  ["COc1ccc(C(CCN(C)C)N2CCOCC2)cc1 (stereo not drawn)", "NA Transporter (hNAT) (Homo sapiens)", 29.3],
  ["CN(C)CCC(c1cccs1)N1CCOCC1 (stereo not drawn)", "NA Transporter (hNAT) (Homo sapiens)", 75.0],
  ["COc1ccc(C(CCN(C)Cc2ccccc2)N2CCOCC2)cc1OC (stereo not drawn)", "NA Transporter (hNAT) (Homo sapiens)", 68.7]
]}

Any idea what NA Reuptake Inhibition was measured for CN(C)CCCC(c1ccc(Cl)c(Cl)c1)N1CCOCC1 (stereo not drawn) ?
54.6

Any idea what NA Reuptake Inhibition was measured for COc1ccc2cc(C(CCN(C)C)N3CCOCC3)ccc2c1Cl (stereo not drawn) ?
49.5

Any idea what NA Reuptake Inhibition was measured for Clc1ccc(C(CCN2CCOCC2)N2CCCC2)cc1Cl (stereo not drawn) ?
101.4

Any idea what NA Reuptake Inhibition was measured for CN(C)CCC(c1cc2ccccc2s1)N1CCOCC1 (stereo not drawn) ?
96.8

Any idea what NA Reuptake Inhibition was measured for CN(C)CCC(c1ccc(F)cc1F)N1CCOCC1 (stereo not drawn) ?
58.0

Any idea what NA Reuptake Inhibition was measured for CN(C)CCC(c1ccc(Cl)c(Cl)c1)N1CCOCC1 (stereo not drawn) ?
93.6

Any idea what NA Reuptake Inhibition was measured for CN(C)CCCC(c1csc2ccccc12)N1CCOCC1 (stereo not drawn) ?
89.5

Any idea what NA Reuptake Inhibition was measured for CN(C)CCC(c1c[nH]c2ccccc12)N1CCOCC1 (stereo not drawn) ?
88.1

Any idea what NA Reuptake Inhibition was measured for CN(C)CCC(c1cc2ccccc2s1)N1CCCCC1 (stereo not drawn) ?
99.8
